Target: T1, recombinant human SEMA4A AviHis10, biotinylated (human, UniProt Q9H3S1 33-683, biotin on the Avi tag (BirA))
T1 construct: The text says amino acids 33-683 of Q9H3S1 with C-terminal Avi tag and His10 tag; also called avi-SEMA4A-His10
T1 sequence: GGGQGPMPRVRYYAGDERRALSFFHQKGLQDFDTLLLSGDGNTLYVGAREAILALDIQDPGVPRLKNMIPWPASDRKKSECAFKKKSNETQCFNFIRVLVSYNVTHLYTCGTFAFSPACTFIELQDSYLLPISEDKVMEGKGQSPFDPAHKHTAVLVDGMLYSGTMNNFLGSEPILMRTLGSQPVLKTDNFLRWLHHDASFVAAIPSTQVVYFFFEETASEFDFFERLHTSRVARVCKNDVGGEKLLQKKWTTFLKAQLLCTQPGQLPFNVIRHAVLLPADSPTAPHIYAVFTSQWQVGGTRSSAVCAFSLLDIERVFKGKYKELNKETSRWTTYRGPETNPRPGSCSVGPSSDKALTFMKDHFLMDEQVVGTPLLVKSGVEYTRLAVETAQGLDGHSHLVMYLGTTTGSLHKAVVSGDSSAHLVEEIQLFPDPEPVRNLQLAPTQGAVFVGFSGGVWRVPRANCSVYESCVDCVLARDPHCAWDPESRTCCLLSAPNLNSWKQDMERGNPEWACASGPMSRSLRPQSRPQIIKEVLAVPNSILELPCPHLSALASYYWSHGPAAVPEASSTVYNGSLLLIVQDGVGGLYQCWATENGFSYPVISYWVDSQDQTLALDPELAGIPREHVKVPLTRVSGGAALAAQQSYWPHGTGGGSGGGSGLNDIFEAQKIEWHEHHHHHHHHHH
Test: BLI (OctetRED), biotinylated SEMA4A on streptavidin tip, IgG as analyte, 1:1 model; KD(observed) IgG
pKd: −log10 of the molar value.
readout_type: pKd

1) 5Hg1-5Lg1 human Alya IgG1 (antibody, V domains shown, Humanised 5E3; human IgG1 Alya constant (239iCys, S442C, EU), lambda light chain; purified, unconjugated) VH: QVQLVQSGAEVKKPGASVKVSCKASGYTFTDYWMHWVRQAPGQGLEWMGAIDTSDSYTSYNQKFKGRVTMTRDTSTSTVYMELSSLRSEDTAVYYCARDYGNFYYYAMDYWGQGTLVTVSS VL: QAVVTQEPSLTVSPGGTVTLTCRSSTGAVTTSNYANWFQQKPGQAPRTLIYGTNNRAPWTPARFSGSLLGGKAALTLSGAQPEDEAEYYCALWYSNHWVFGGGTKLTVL
≥ 8.70

The measurements presented in this section are drawn from patent US20250152729A1.
